Assay Explanation: Plasma clearance in Beagle dog at 0.25 mg/kg, iv or 0.5 mg/kg, po
Type: ADME, organism-based, Canis lupus familiaris
Quantity: clearance (mL/min/kg)

1 = CCn1ncc(-c2nc3c(N4CCC(n5c(=O)[nH]c6ncccc65)CC4)ncnc3n2C)c1C
2 = CCn1ncc(-c2nc3c(O[C@H]4CCN(C(=O)C5CCOCC5)C4)ncnc3n2C)c1C
**Query** Just tell me: smaller clearance value, 1 or 2 ? Which one? Tell me its label.
**Result** 2
(2: 5.8 mL/min/kg, 1: 46 mL/min/kg)

====

System Tested: Phosphatidylinositol 4,5-bisphosphate 3-kinase catalytic subunit delta isoform (Homo sapiens)
Sequence (O00329 whole entry): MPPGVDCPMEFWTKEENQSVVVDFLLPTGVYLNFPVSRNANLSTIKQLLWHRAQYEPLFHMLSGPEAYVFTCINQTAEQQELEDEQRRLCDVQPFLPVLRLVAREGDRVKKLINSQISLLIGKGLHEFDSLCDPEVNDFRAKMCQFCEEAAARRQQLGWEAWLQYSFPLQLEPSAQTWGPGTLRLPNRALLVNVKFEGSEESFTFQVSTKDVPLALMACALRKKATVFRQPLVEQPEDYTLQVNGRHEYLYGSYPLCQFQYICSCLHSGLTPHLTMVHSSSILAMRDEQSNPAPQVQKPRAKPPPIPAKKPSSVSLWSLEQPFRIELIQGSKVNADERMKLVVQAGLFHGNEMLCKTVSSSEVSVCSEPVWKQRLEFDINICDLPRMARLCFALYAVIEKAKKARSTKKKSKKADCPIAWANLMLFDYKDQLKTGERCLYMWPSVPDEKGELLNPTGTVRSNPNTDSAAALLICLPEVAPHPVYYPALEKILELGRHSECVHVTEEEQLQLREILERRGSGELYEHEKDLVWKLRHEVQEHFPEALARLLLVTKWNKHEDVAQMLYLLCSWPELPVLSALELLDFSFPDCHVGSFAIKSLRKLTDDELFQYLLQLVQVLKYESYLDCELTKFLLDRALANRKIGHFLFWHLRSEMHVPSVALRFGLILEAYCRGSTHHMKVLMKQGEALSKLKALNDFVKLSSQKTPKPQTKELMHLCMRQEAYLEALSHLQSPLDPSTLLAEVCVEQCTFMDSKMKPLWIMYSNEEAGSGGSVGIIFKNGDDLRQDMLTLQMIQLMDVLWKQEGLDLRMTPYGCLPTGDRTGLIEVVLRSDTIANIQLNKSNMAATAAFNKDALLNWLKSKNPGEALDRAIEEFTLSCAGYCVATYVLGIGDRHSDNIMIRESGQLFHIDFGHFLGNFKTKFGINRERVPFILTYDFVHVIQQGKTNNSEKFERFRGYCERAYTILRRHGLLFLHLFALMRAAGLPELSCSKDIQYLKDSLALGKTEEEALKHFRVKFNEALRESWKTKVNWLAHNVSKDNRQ
Assay Explanation: Inhibition of PI3Kdelta in human whole blood assessed as reduction in antihuman IgE antibody-stimulated CD63 expression preincubated for 30 mins followed by antihuman IgE antibody stimulation and measured after 20 mins by FACS analysis
Format: tissue-based
pIC50: −log10 of the molar value.
Quantity: pIC50

compound=CCn1ncc(-c2nc3c(N[C@H]4CCN(C(=O)C5CC5)C4)ncnc3n2C)c1C measured_result=6.48

P = CCn1ncc(-c2nc3c(O[C@H]4CCN(C(=O)C5CCOCC5)C4)ncnc3n2C)c1C
Q = CCn1ncc(-c2nc3c(N4CCC(n5c(=O)[nH]c6ncccc65)CC4)ncnc3n2C)c1C
**Query** Which entry has a larger number for pIC50, P or Q ? Answer by quoting the chosen item's label.
**Result** P
